System: H1703 Sunitinib resistant line A (H1703 SRa)
Test: Alamar blue assay, H1703 SRa
Type: cell-based
Conditions: Homo sapiens, NCI-H1703, read-out: Sunitinib IC50(μM), Example 3, mean of three experiments
Procedure: GraphPad Prism 4.01 was used to calculate IC50 values. […] GenoSensor GenoExplorer™ microRNA Expression System (Sanger miRNA Registry version 14 containing probes for 904 mature miRNAs and 450 pre-miRNAs) was used to screen miR expression. Differences in miRs expression between the parent and resistant cells were identified using at test with Benjamini-Hochberg correction and validated by qPCR. A score was calculated for each miRNA to determine whether a miRNA can predict SR.

Molecule | Study System | Value Units | IC50
CCN(CC)CCNC(=O)c1c(C)[nH]c(/C=C2\C(=O)Nc3ccc(F)cc32)c1C [Sunitinib] | H1703 Sunitinib resistant line A (H1703 SRa) | µM | 7.6

###

Tested on: HCC827 NSCLC cell line
Assay: AlamarBlue proliferation assay, HCC827
Assay type: cell-based
Conditions: Homo sapiens, 72 hours

Sample Smiles | IC50, nM
COc1cc2c(Nc3ccc(Br)cc3F)ncnc2cc1OCC1CCN(C)CC1 | 550

###

Test system: H2122 NSCLC cell line
Experiment: AlamarBlue proliferation assay, H2122
Type: cell-based
Details: Homo sapiens, NCI-H2122, read-out: Sunitinib IC50(μM); H2122, Example 3, mean of three experiments

Sample Smiles | Value Units | IC50
CCN(CC)CCNC(=O)c1c(C)[nH]c(/C=C2\C(=O)Nc3ccc(F)cc32)c1C | µM | 4.8

###

Test system: H358 NSCLC cell line
Assay: AlamarBlue proliferation assay, H358
Assay type: cell-based
Conditions: Homo sapiens, NCI-H358, read-out: Sunitinib IC50(μM); H358, Example 3, mean of three experiments

Compound | IC50
CCN(CC)CCNC(=O)c1c(C)[nH]c(/C=C2\C(=O)Nc3ccc(F)cc32)c1C [Sunitinib] | 14.2 µM

###

Test system: HCC4006 NSCLC cell line
Experiment: AlamarBlue proliferation assay, HCC4006
Type: cell-based
Settings: Homo sapiens, 72 hours
Endpoint Label: IC50 (µM)

Sample Smiles | Study System | Endpoint Label | Observed Result
C#Cc1cccc(Nc2ncnc3cc(OCCOC)c(OCCOC)cc23)c1 | HCC4006 NSCLC cell line | IC50 | 0.02

###

Test system: H358 NSCLC cell line
Test: AlamarBlue proliferation assay, H358
Type: cell-based
Details: Homo sapiens, NCI-H358; H358, AlamarBlue proliferation, 72 hours; read-out: IC50
pIC50: −log10 of the molar value.
# pIC50 listing for each entry below

Sample Smiles | pIC50
C#Cc1cccc(Nc2ncnc3cc(OCCOC)c(OCCOC)cc23)c1 | 4.54
COc1cc2c(Nc3ccc(Br)cc3F)ncnc2cc1OCC1CCN(C)CC1 | 5.38
CCN(CC)CCNC(=O)c1c(C)[nH]c(/C=C2\C(=O)Nc3ccc(F)cc32)c1C | 4.85
